Target: RSV N-RNA complex (Human respiratory syncytial virus A)
Construct: Full-length N was produced by co-expression with the C-terminal domain of RSV P protein in E. coli BL21(DE3); made in house; host or cells: E. coli BL21(DE3), co-transformed with pET-N and pGEX-P(161–241)
Sequence (P03418 whole entry, looked up, the tested form may be a part, one chain of several): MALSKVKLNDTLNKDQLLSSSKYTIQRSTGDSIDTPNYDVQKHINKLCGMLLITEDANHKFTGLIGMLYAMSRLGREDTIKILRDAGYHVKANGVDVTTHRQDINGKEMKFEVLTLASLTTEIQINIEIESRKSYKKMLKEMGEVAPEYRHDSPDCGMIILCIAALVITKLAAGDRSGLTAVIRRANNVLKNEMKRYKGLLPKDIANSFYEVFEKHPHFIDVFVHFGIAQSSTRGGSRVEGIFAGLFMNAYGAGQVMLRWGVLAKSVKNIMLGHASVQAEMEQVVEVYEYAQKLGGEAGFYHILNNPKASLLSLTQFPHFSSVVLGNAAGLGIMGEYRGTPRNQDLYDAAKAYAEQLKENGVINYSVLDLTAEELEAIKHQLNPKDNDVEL
Experiment: Fluorescence polarization inhibition of N-RNA binding to fluorescent probes
Conditions: probe BCN8E, [N-RNA] 5 µM; IC50-to-Ki server; read-out: Ki
experimental.readout: Ki (nM)
Hi! Could you send only the number? It should be in nM, unit omitted.

Ask: Field request: Ki | item: O=C(O)c1cc(C(=O)O)n(Cc2ccc(Cl)cc2Cl)n1
Result: 2000

----------
Biological target: RSV N-RNA complex (Human respiratory syncytial virus A)
Construct: Full-length N was produced by co-expression with the C-terminal domain of RSV P protein in E. coli BL21(DE3); made in house; host or cells: E. coli BL21(DE3), co-transformed with pET-N and pGEX-P(161–241)
Test: Fluorescence polarization inhibition of N-RNA binding to fluorescent probes
Settings: probe BCN5E, [N-RNA] 20 µM; IC50-to-Ki server; read-out: Ki
experimental.readout: Ki (µM)
Hi! Could you send only the number? It should be in µM, unit omitted.

Ask: Field request: Ki | item: O=C(O)c1cc(C(=O)O)n(Cc2ccc(Cl)cc2Cl)n1
Result: 3.6

----------
Molecular target: RSV NNTD (Human respiratory syncytial virus A)
Sequence (P03418 31-252): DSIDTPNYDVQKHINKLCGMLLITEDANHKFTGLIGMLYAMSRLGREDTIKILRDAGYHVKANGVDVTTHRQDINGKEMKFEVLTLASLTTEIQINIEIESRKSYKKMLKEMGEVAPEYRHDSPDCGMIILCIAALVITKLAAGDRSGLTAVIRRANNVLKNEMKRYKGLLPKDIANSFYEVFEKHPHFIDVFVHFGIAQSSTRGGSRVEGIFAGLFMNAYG
experimental.readout: IC50 (µM)
Hi! Could you send only the number? It should be in µM, unit omitted.

Ask: Field request: IC50 | item: O=C(O)c1cc(C(=O)O)n(Cc2ccc(Cl)cc2Cl)n1 [M76]
Result: 28
